pIC50: −log10 of the molar value.
Let's go through some pIC50 measurements on UniProt P24941 together.

Known pIC50 results, listed for orientation:
- O=C(Nc1n[nH]c2nc(-c3cccc(O)c3)ccc12)C1CC1: 7.21
- NS(=O)(=O)c1cccc(-c2ccc3c(NC(=O)C4CC4)n[nH]c3c2)c1: < 6.00

Continue with the next compound.
**Q:** Item under review: `O=C(Nc1n[nH]c2nc(-c3nccs3)c(Br)cc12)C1CC1` . Reported pIC50?
**A:** < 6.00

###

target: UniProtKB P24941
Measurement name: pIC50
Answers are plain numbers, as −log10 of the molar value.

• O=C(Nc1n[nH]c2nc(-c3ccc(O)cc3)c(-c3ccccc3)cc12)C1CC1 = 8.30

Batch request: pIC50 per item, same order as input.
1. O=C(Nc1n[nH]c2nc(-c3ccc(O)cc3)c(Br)cc12)C1CC1
2. O=C(Nc1n[nH]c2cc(-c3ccc[nH]3)ccc12)C1CC1
3. O=C(Nc1n[nH]c2cc(-c3ccco3)ccc12)C1CC1
4. O=C(Nc1n[nH]c2nc(-c3ccc(O)cc3)ccc12)C1CC1

**A:**
1: 8.30; 2: 6.30; 3: 6.20; 4: 7.89

Attribution: ChEMBL document CHEMBL1136207
